- tgt: rat CB2 receptors (Rattus norvegicus)
- Construct: expressed in transfected cells; host or cells: HEK293
- Sequence (Q9QZN9 whole entry): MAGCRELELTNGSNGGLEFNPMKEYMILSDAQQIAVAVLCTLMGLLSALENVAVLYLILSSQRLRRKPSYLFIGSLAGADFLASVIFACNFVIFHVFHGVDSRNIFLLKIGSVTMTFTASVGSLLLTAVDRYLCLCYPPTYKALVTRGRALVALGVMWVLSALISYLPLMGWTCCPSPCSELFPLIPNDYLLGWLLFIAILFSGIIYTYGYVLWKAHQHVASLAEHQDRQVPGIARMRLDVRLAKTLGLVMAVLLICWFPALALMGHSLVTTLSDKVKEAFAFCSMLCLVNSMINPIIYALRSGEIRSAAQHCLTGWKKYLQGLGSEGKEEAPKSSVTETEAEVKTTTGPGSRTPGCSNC
- assay_protocol: Rat CB2 radioligand binding assay ([3H]CP-55,940 competition)
readout_kind: Ki (nM)
Numbers only, in nM.

compound	tgt	readout_kind	reported_result
COc1ccc(Cl)cc1C(=O)/N=c1\oc(C(C)(C)C)cn1C[C@H]1CCCO1 [Example 13]	rat CB2 receptors (Rattus norvegicus)	Ki	1.9
COc1ccc(C#N)cc1C(=O)/N=c1\cc(C(C)(C)C)n(C)n1C[C@H]1CCCO1 [Example 48]	rat CB2 receptors (Rattus norvegicus)	Ki	29
C/C=C/c1ccc(C(F)(F)F)cc1C(=O)/N=c1\cc(C(C)(C)C)n(C)n1C[C@H]1CCCO1 [Example 99]	rat CB2 receptors (Rattus norvegicus)	Ki	3.5
CN1CC[C@H](Oc2ccc(C(F)(F)F)cc2C(=O)/N=c2\sc(C(C)(C)C)nn2C[C@H]2CCCO2)C1 [Example 97]	rat CB2 receptors (Rattus norvegicus)	Ki	46
Cn1c(C(C)(C)C)c/c(=N\C(=O)c2cc(C(F)(F)F)cc(Cl)c2F)n1C[C@H]1CCCO1 [Example 52]	rat CB2 receptors (Rattus norvegicus)	Ki	1.3

Hi team, please reply with Ki for each item in this list.
1. CC(C)CS(=O)(=O)Nc1ccc(C(F)(F)F)cc1C(=O)/N=c1\cc(C(C)(C)C)n(C)n1C[C@H]1CCCO1 [Example 125]
2. Cn1c(C(C)(C)C)c/c(=N\C(=O)c2cc(Br)cc3c2OCC3)n1C[C@H]1CCCO1 [Example 60]

Solution:
[25, 46]

Batch: Ki for all items listed.
1. Cn1c(C(C)(C)C)c/c(=N\C(=O)c2cc([N+](=O)[O-])ccc2F)n1C[C@H]1CCCO1 [Example 129]
2. COc1ccc(C(F)(F)F)cc1C(=O)/N=c1\cc(C(C)(C)C)n(C)n1C[C@H]1CCCO1 [Example 47]
3. COC(C)(C)CCOc1ccc(C(F)(F)F)cc1C(=O)/N=c1\cc(C(C)(C)C)n(C)n1C[C@H]1CCCO1 [Example 20]

Solution:
[2.3, 3.7, 23]

Could you tell me Ki for each of these compounds? They are listed below.
1. COc1ccc(Cl)cc1C(=O)/N=c1\sc(C2(C)CC2)nn1C[C@H]1CCCO1 [Example 5]
2. Cn1c(C(C)(C)C)c/c(=N\C(=O)c2cc(C(F)(F)F)ccc2OCC2CC(=NO)C2)n1C[C@H]1CCCO1 (stereo partly drawn) [Example 119]
3. COc1ccc(C(F)(F)F)cc1C(=O)/N=c1\cc(C(C)(C)C)n(C)n1CC1CC[C@H](C)O1 (stereo partly drawn) [Example 65]
4. Cn1c(C(C)(C)C)c/c(=N\C(=O)c2cc(C(F)(F)F)ccc2NC(=O)OC(C)(C)C)n1C[C@H]1CCCO1 [Example 120]
5. Cn1c(C(C)(C)C)c/c(=N\C(=O)c2cc(N)cc(C(F)(F)F)c2)n1C[C@H]1CCCO1 [Example 107]

Solution:
0.9
25
5.7
2.1
4.8

* * *

- tgt: human CB2 receptors (Homo sapiens)
- Construct: expressed in transfected cells; host or cells: HEK293
- Sequence (P34972 whole entry): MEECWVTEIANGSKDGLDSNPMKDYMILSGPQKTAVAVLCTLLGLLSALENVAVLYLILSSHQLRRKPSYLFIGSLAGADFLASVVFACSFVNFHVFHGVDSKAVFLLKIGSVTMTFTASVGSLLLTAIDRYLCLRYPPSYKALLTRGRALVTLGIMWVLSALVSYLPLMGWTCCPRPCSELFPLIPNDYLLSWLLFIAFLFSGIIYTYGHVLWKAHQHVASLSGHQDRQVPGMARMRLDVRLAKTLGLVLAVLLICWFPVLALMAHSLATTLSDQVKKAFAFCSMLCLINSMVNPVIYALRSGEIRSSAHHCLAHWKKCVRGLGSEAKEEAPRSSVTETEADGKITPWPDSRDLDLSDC
- assay_protocol: Human CB2 radioligand binding assay ([3H]CP-55,940 competition)
- Experimental: The CB1 and CB2 radioligand binding assays described herein are utilized to determine the selectivity of compounds of the present invention for binding to CB2 relative to CB1 receptors. HEK293 cells stably expressing human CB2 receptors were grown until a confluent monolayer was formed. […] The bound activity was counted in a TopCount using Microscint-20. […]
readout_kind: log10(Ki) (log10 of the value in nM)
Values are log10 of Ki in nM.

These recorded examples may help you get a feel for the data.
compound	log10(Ki)
Cn1c(C(C)(C)C)c/c(=N\C(=O)c2cc(F)ccc2Cl)n1C[C@H]1CCCO1	1.80
Cn1c(C(C)(C)C)c/c(=N\C(=O)c2cc(C(F)(F)F)cc(Cl)c2F)n1C[C@H]1CCCO1	0.82
COC(=O)Cc1ccc(C(F)(F)F)cc1C(=O)/N=c1\cc(C(C)(C)C)n(C)n1C[C@H]1CCCO1	2.39
Cn1c(C(C)(C)C)c/c(=N\C(=O)c2cc(C(F)(F)F)ccc2OCCC(C)(C)F)n1C[C@H]1CCCO1	1.28
Cn1c(C(C)(C)C)c/c(=N\C(=O)c2cccc(C(F)(F)F)c2F)n1C[C@H]1CCCO1	-0.15

Batch of 6 compounds: report log10(Ki) for each.
1. Cc1ccc(C(F)(F)F)cc1C(=O)/N=c1\cc(C(C)(C)C)n(C)n1C[C@H]1CCCO1
2. COc1c(Cl)cc(C(F)(F)F)cc1C(=O)/N=c1\cc(C(C)(C)C)n(C)n1C[C@H]1CCCO1
3. Cn1c(C(C)(C)C)c/c(=N\C(=O)c2cc(C(F)(F)F)ccc2OC[C@H]2C[C@@H](O)C2)n1C[C@H]1CCCO1
4. Cn1c(C(C)(C)C)c/c(=N\C(=O)c2cc(F)cc(C(F)(F)F)c2)n1C[C@H]1CCCO1
5. CC(C)(C)c1nn(C[C@H]2CCCO2)/c(=N/C(=O)NC2CCCc3ccccc32)s1 (stereo partly drawn)
6. COc1ccc(Cl)cc1C(=O)/N=c1\oc(C(C)(C)C)cn1C[C@H]1CCCO1

Solution:
1: 1.04; 2: 1.20; 3: 2.17; 4: 1.11; 5: 1.65; 6: 0.68

Batch request: log10(Ki) per item, same order as input.
1. Cn1c(C(C)(C)C)c/c(=N\C(=O)c2cc(Br)cc3c2OCC3)n1C[C@H]1CCCO1
2. C=Cc1ccc(C(F)(F)F)cc1C(=O)/N=c1\cc(C(C)(C)C)n(C)n1C[C@H]1CCCO1
3. CNC(=O)[C@@H](NC(=O)/N=c1\sc(C(C)(C)C)nn1C[C@H]1CCCO1)C(C)(C)C

Solution:
1: 1.82; 2: 0.91; 3: 0.58

The values you see were collected from patent US8492371B2.
